METHOD_NOTES: Dynamic vapor sorption (DVS) hygroscopicity test
Format: physicochemical
ASSAY_SETUP: 25° C. and 80% RH
Structures can show the parent of a compound that is named as a salt.
MEASURED_PROPERTY: hygroscopic weight gain (DVS) (%)

* CC(C)N1Cc2cc(C(F)(F)F)ncc2-c2cnc(NCc3c(F)ccc4c3CCO4)n3cnc(c23)C1=O [crystalline form A of the compound of formula I] | 0.44
* CC(C)N1Cc2cc(C(F)(F)F)ncc2-c2cnc(NCc3c(F)ccc4c3CCO4)n3cnc(c23)C1=O [crystalline form A of the methanesulfonate salt of the compo] | 0.84
* CC(C)N1Cc2cc(C(F)(F)F)ncc2-c2cnc(NCc3c(F)ccc4c3CCO4)n3cnc(c23)C1=O [crystalline form B of the compound of formula I] | 0.84
* CC(C)N1Cc2cc(C(F)(F)F)ncc2-c2cnc(NCc3c(F)ccc4c3CCO4)n3cnc(c23)C1=O [crystalline form A of the sulfate salt of the compound of fo] | 1.43
* CC(C)N1Cc2cc(C(F)(F)F)ncc2-c2cnc(NCc3c(F)ccc4c3CCO4)n3cnc(c23)C1=O [crystalline form A of the hydrochloride salt of the compound] | 0.31

----------
METHOD_NOTES: XRPD characterization (crystallinity), summary evaluation
Type: physicochemical
ASSAY_SETUP: summary of forms
MEASURED_PROPERTY: Evaluation results: crystallinity

• CC(C)N1Cc2cc(C(F)(F)F)ncc2-c2cnc(NCc3c(F)ccc4c3CCO4)n3cnc(c23)C1=O.CS(=O)(=O)O [Methanesulfonate salt Crystalline form A] = High crystallinity
• CC(C)N1Cc2cc(C(F)(F)F)ncc2-c2cnc(NCc3c(F)ccc4c3CCO4)n3cnc(c23)C1=O.Cc1ccc(S(=O)(=O)O)cc1 [p-toluenesulfonate Crystalline form A] = High crystallinity
• CC(C)N1Cc2cc(C(F)(F)F)ncc2-c2cnc(NCc3c(F)ccc4c3CCO4)n3cnc(c23)C1=O [Crystalline form G] = High crystallinity
